TARGET_DESC: T1, human IL-2 (human, UniProt P60568 21-153, biotin-labeled in the IL2RB blocking assay)
T1 construct: also called biotin-labeled IL-2 (Acro Biosystems IL2-H82E4)
PROTOCOL_NOTES: HTRF
METRIC: IL2 Binding
Returns: the value as a bare number; no unit string appended.

Prompt: I have this binder here, PD1-IL2-R02-A11 (scFv, V domains shown, cf) VH: QVQLVQSGAEVKKPGASVKVSCKASGHTFTRYYMHWVRQAPGQGLEWMGIINPSGGYATYAQKFQGRVTMTRDTSTSTVYMELSSLRSEDTAVYYCASGWDVWGQGTLVTVSS VL: DIQMTQSPSSLSASVGDRVTITCRASQSINSWLAWYQQKPGKAPKLLIYATSTLESGVPSRFSGSGSGTDFTLTISSLQPEDFATYYCQQSYSFPPTFGQGTKVEIK , and I need its recorded IL2 Binding.
Completion: 1560

Prompt: I have this binder here, PD1-R07-A05 (scFv) scFv: QVQLVQSGAEVKKPGASVKVSCKASGYTFTTYYVHWVRQAPGQGLEWMGIINPSGGSTSYAQNFQGRVTMTRDTSTSTVYMELSSLRSEDTAVYYCASGWDVWGQGTTVTVSSASGGGGSGGGGSGGGGSHASEIVMTQSPATLSVSPGERATLSCRASQSVNTYLAWYQQKPGQAPRLLIYGASTRATGIPARFSGSGSGTEFTLTISSLQSEDFAVYYCQQYGSSPVTFGQGTRLEIK , and I need its recorded IL2 Binding.
Completion: 19

Prompt: I have this binder here, PD1-IL2-R02-B07 (scFv) QVQLVQSGAEVKKPGASVKVSCKASGDTFTRHYVHWVRQAPGQGLEWMGIINPSGGYASYAQKFQGRVTMTRDTSTSTVYMELSSLRSEDTAVYYCAAGLFIWGQGTLVTVSSASGGGGSGGGGSGGGGSHASDIQMTQSPSSLSASVGDRVTITCRASQSIGRWLAWYQQKPGKAPKLLIYSASNLETGVPSRFSGSGSGTDFTLTISSLQPEDFATYYCQQANSFPVTFGPGTKVDIK , and I need its recorded IL2 Binding.
Completion: 628
